test system: LXRa:RXRa (NR concentration 270 nM, RXRa partner concentration 90 nM); assay: PBM binding z-score (relative to random genomic background probes); higher = stronger binding; sequences stand for … in GC…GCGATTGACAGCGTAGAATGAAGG
Please note: label 1 applies when PBM binding z-score is 4 or greater, and label 0 applies otherwise.

{"primarySequence": "CCTACTGGGCCAAAGGTCATTAATTCCAATGCTC", "className": "label 1"}
{"primarySequence": "CCTTACGGGTCACTGACAGGTTATAACATTTGGA", "className": "label 1"}
{"primarySequence": "CGTGAAAGTTCAACTAAGGTAACGTAAAGCACGC", "className": "label 1"}
{"primarySequence": "GCTAGCAGGCCATTTGGGTCACTCACTGACGGGC", "className": "label 0"}
{"primarySequence": "CGTCCAAGGTCACAGGTCAGTGAAGAGATGACGG", "className": "label 1"}
{"primarySequence": "TCGAGTAGGTTAGTCGGGTCATTCAGCCAACATA", "className": "label 0"}
